- target: T1, Clostridium difficile toxin A (TcdA) (Clostridium difficile, UniProt P16154 1-2710)
- T1 construct: mature; also called full-length TcdA
- T1 sequence (P16154 whole entry): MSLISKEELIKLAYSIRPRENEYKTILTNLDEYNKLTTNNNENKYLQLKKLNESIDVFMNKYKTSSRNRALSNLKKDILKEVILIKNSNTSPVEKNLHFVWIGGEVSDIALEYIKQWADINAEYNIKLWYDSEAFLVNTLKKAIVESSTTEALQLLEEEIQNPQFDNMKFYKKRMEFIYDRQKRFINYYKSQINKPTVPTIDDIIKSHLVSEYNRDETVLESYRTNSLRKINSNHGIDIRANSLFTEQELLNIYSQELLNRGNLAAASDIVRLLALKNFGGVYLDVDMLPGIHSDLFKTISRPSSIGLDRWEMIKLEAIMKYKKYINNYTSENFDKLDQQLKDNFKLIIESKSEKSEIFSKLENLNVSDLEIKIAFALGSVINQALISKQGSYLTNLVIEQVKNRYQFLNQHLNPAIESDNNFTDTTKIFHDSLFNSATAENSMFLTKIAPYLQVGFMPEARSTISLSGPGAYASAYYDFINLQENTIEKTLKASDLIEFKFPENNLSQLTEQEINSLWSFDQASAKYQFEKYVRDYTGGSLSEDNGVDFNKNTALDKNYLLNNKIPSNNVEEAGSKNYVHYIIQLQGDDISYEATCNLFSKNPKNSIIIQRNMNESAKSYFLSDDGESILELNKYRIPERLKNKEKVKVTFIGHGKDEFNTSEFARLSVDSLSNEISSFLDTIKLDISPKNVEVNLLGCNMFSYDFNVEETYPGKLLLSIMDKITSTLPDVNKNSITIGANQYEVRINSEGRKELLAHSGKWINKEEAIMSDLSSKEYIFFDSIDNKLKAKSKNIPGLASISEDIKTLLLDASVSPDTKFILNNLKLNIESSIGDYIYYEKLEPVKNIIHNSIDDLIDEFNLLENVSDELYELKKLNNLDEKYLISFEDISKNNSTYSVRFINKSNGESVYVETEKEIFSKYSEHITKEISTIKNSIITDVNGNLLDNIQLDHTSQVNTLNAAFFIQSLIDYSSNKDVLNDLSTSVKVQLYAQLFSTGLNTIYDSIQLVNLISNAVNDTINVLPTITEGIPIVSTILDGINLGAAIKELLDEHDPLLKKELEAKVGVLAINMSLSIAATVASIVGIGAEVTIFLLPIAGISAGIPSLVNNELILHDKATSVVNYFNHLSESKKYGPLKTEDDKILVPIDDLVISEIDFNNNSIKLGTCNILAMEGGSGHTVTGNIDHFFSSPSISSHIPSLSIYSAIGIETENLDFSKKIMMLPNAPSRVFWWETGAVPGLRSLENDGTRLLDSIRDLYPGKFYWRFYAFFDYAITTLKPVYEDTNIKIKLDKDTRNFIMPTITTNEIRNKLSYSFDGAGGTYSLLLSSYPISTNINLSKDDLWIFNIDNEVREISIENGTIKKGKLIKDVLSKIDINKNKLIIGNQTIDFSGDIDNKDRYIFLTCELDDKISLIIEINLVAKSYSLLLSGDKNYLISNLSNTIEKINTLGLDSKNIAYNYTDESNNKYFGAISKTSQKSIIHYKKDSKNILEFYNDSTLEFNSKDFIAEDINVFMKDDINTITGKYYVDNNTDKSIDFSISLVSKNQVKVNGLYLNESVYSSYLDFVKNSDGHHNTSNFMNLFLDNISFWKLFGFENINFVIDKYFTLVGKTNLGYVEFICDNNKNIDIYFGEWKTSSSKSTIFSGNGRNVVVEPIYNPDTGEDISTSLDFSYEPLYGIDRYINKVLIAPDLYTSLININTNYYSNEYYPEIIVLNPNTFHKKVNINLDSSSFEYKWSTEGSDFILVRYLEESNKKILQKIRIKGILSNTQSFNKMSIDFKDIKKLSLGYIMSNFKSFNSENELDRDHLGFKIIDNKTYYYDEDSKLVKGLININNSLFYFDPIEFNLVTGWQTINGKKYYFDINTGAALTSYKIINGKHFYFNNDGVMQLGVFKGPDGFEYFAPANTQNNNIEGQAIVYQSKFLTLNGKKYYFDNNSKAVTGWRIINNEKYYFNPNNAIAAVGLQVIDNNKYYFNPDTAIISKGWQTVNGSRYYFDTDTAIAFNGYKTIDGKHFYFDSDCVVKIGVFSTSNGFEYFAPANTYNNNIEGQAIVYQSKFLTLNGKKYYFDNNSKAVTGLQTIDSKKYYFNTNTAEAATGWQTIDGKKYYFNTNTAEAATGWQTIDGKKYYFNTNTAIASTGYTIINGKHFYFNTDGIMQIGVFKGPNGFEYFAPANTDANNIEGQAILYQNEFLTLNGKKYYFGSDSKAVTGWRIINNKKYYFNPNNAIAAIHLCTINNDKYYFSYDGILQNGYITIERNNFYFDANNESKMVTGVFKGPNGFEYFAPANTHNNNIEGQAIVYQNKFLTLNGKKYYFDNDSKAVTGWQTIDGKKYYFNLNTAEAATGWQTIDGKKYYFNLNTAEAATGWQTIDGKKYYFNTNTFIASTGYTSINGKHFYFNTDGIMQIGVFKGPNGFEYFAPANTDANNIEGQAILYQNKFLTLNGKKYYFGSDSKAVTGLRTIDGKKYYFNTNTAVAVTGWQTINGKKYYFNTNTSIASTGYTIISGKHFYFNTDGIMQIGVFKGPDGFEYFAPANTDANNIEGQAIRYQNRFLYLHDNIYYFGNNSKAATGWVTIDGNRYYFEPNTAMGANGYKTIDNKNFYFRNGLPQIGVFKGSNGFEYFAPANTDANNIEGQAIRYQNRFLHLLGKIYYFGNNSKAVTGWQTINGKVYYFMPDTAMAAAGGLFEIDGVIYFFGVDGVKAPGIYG
- assay.text: SPR (Biacore 3000), VHH over immobilized TcdA; binding free energy difference relative to parent VHH
# ΔΔG listing for each entry below
Quick note: give the figure in kcal/mol, leave out the unit.

For A26.8-T56R, Q101K (VHH, not shown: small tags and cut ends) VHH: QVKLEESGGGLVQAGGSLRLSCAASERTFSRYPVAWFRQAPGAEREFVAVISSTGRSTYYADSVKGRFTISRDNAKVTVYLQMNNLKREDTAVYFCAVNSKRTRLQDPNEYDYWGQGTQVTVSS , what is its reported ΔΔG?
-0.88

Likewise for A26.8 VHH mutant Q106Y (VHH, not shown: small tags and cut ends) VHH: QVKLEESGGGLVQAGGSLRLSCAASERTFSRYPVAWFRQAPGAEREFVAVISSTGTSTYYADSVKGRFTISRDNAKVTVYLQMNNLKREDTAVYFCAVNSQRTRLYDPNEYDYWGQGTQVTVSS ?
2.82

The reported numbers originate from patent US20210171613A1.
